meta.source: the supplement of paper PMC9170038

# Test system: MS2 coat protein
# assay-name: apparent KD of MS2 coat protein; designed switch direction (-1 OFF switch, 1 ON switch): -1; higher = weaker reporter binding
# experimental-conditions: input ligand: FMN 200 uM
parameter: apparent KD of MS2 coat protein

sequence-data	apparent KD of MS2 coat protein
UUAAUAUAUGUAGGAUAUGCGUGGCGAAGCUAUGCAGAAGGACAUGAGGAUCACCCAUGUUCCAGCGUCCGCGUACGGAUGCAA [JL Eng1 1.21 mod 11] (Eterna round: R96, puzzle: Exclusion NG 1)	16 nM
AGUAGAUCAGGAUAUACGUGAAAGGUCAAAGUGUCCAAUAUACAUGAGGAUCACCCAUGUAGAAGGGAUCUACA [Ex2 Design 116: Not so Super Stable 3] (Eterna round: R96, puzzle: Exclusion 2)	168 nM
UAGAAAGGUAAGGAUAUCCAUGUGAAAUAAAGAGGAGAAGGUACCACAUGAGGAUCACCCAUGUGGCUCUCAAA [jl-ex6-4.54 Nando mod] (Eterna round: R97, puzzle: Exclusion 6)	13.8 nM

Attention now turns to another entry.
Need apparent KD of MS2 coat protein of CCCAGUUAGGAAGGAUAUUGUACAUGAGGAUCACCCAUGUAAUAAAUGAGGAUCUCGGAUGUCUACAAGAAGGUCCGGAUAGGC [Ostracism 11 - Jieux - Exclusion NG 2] (Eterna round: R96, puzzle: Exclusion NG 2) , thanks.
65.9 nM

----------
# System: MS2 coat protein
# assay-name: apparent KD of MS2 coat protein, switch ON state; designed switch direction (-1 OFF switch, 1 ON switch): -1; higher = weaker reporter binding
# experimental-conditions: FMN input: 0 or 200 uM; Eterna round: R93 (includes R88 designs)
Classification field: true (1) = apparent KD of MS2 coat protein at or over 30 nM; false (0) = apparent KD of MS2 coat protein under 30 nM.

Past entries and their recorded results:
sequence-data	label-class
GGGUAACAUGAGGAUCACCCAUGUGAGGAUAUUCUAGGGAUGGAAGCUCGGCCGGCCAGGAGAAGGUACUAAAG [Janelle Amethyst 18 Mod 20 - Jieux - Exclusion 1]	false (0)
AUAAAUCGAGGAUAUACAUGAGGAUCACCCAUGUAAAUAAAUAAAUAAAACUCCACAAGUAGAAGGCGAAAUAA [JR_Exc003_Sub020]	false (0)
AAGACUAGAGGAUAUACAUGAGGAUCACCCAUGUAACUGUCAGGAGACUGACGGAGAAGUAGAAGGCUAGUCAA [Mat - Exclusion 3 - JL mod - D84]	false (0)
AAAAAGUGAGGAUAUGGUAAAAAAAAAAAAAAAAAAAAACUCCAGAAGGCACAUGAGGAUCACCCAUGUAAAAA [Jolly's Folly - Jieux - Exclusion 4]	true (1)
AAAAAACAUGAGGAUCACCCAUGUGAGGAUAUGCAAAACCCAUAUAAAAAGAGAAAAAGCAGAAGGCACAAAAA [wbt round 1 mod]	false (0)
AGUAGUACAGGAUAUACAUGAGGAUCACCCAUGUGAAAAUAAAGUGGCGUACCACAAAGUAGAAGGGUACUACA [Mat - Exclusion 3 - JL mod - D35]	false (0)
CGCAAGUCAGGAUAUUCGACAGGUAAAUCAGUAGAUCAGAAGAAGAAGGGACAUGAGGAUCACCCAUGUAAGUA [JR_Exc004_Sub405]	true (1)
AAAACUGGAGGAUAUACAUGAGGAUCACCCAUGUGUGGAUGAGCUGAAACGGCAUCACGUAGAAGGCCACAAAA [Gilly Gone Silly 40 - Jieux - Exclusion 3]	true (1)

Check this sequence for apparent KD of MS2 coat protein at or above 30 nM: AAGAAGUGAGGAUAUCGAAGACAGACGAAAAGUCUGUCAAACGAGAAGGCACAUGAGGAUCACCCAUGUGAGAA [What have we learned so far? 64% 2]
false (0)

Check this sequence for apparent KD of MS2 coat protein at or above 30 nM: AUCUACCUAGGAUAUACAUGAGGAUCACCCAUGUACAGUUUCAACUAGGGAUACUCACGUAGAAGGAGGUAGAU [JR_Exc003_Sub1210]
true (1)

Check this sequence for apparent KD of MS2 coat protein at or above 30 nM: AAGAAUUCAGGAUAUACAAGGAAGAAAGAAAAGAAAAGAAAACAUGAGGAUCACCCAUGUAGAAGGGAAUAGAA [EteRNA is fun!]
true (1)

Check this sequence for apparent KD of MS2 coat protein at or above 30 nM: AGCUAGUCAGGAUAUACGAACAUGUCAAAAGACGUGAAGGGACAUGAGGAUCACCCAUGUAGAAGGGACUAGCC [salish99-Ex2-17]
true (1)

Check this sequence for apparent KD of MS2 coat protein at or above 30 nM: AAGAAGUGAGGAUAUCGAAGACAGACGAAAAGUCUGUCAAACGAGAAGGCACAUGAGGAUCACCCAUGUGGGAA [What have we learned so far? 64% 3]
true (1)
